- Protocol Text: Toxicity liver stage against HepG2, at 10uM
- Format: cell-based
- Parameters: test concentration 10 uM, cell line HepG2-A16-CD81EGFP
- Experimental Context: human, HepG2-A16-CD81EGFP cells; read-out: INHIBITION
Quantity Kind: cytotoxicity at 10 µM (%)
Respond with the bare value in %.

Illustrative cases are given below, each with its answer.
CCn1cc2c(n1)CN(C(=O)c1ccncc1)CC2COCC1CC1 (stereo not given): -2.37
CCN1CCC(c2nc3ccc(NC(C)C)cn3n2)CC1: -22.3
CC(NC(=O)C1(NC(=O)c2ccc3[nH]ncc3c2)CCCC1)C1CC1 (stereo not given): -2.03
CCOc1ccc(OCc2nccc(-c3cc(C(=O)O)ccn3)n2)cc1: -11.8
Cc1cc(C)c(C(=O)N2CCOCC2c2c(C)nn(C)c2C)o1 (stereo not given): -2.48
CC1CCN(Cc2ccc(CNC(=O)c3ccn(C)c(=O)c3)cc2)CC1: -2.94
CC(C)c1nc(N2CCC(N3CCCCCC3)CC2)c2cnn(C)c2n1: -135
CCC1=N[C@@]2(CC[C@@H]3CN(Cc4ccc(C)cc4)C[C@@H]32)C(=O)N1C: -95
Cc1nn(C)c(C)c1CCNC(C)c1ccc(-n2ccnc2C)cc1 (stereo not given): 31.6
CCn1nc2c(cc1=O)CN(CCOc1ccc(C#N)cc1)CC2: -3.73

Endpoint output: cytotoxicity at 10 µM of CC(C)c1nc(C(=O)N2C[C@H](C(C)C)[C@@H](N)C2)cs1 . Value?
-3.73

May I ask what cytotoxicity at 10 µM has been recorded for Cc1cc(C(=O)N2CCn3nc(C(=O)NC4CC4)cc3C2)nc(C)n1 ?
1.15

# get_value(readout='cytotoxicity at 10 µM', item= c1c[nH]c(-c2cn(CCSc3cnn[nH]3)nn2)n1 )
-47.5

Tell me the measured cytotoxicity at 10 µM of CNC(=O)c1ccc(OC)c(NCc2noc(-c3ccsc3)n2)c1 , please.
0.736

What does the data say about its cytotoxicity at 10 µM? Entry: O=C(Cc1c(F)cccc1Cl)N1CCC(Nc2cccnn2)CC1
-4.92
